Tested on: Zea mays
TEST SUMMARY: Crop compatibility post-emergence (greenhouse pot trial)
Format: in vivo
RUN CONDITIONS: application rate 5 g/ha
READOUT NAME: Zea mays (Efficacy in %)

Would you please look over these solved cases?
MOLECULE	UNITS TEXT	Zea mays (Efficacy in %)
CCC(Sc1cc(-n2c(=O)c(C)c(C(F)(F)F)n(C)c2=O)c(F)cc1Cl)C(=O)OCC1CCOC1 (stereo not drawn)	%	0
CC(Sc1cc(-n2c(=O)cc(C(F)(F)F)n(C)c2=O)c(F)cc1Cl)C(=O)NCC1CCCO1 (stereo not drawn)	%	10
CCC(Sc1cc(-n2c(=O)c(C)c(C(F)(F)F)n(C)c2=O)c(F)cc1Cl)C(=O)NCC1CCCO1 (stereo not drawn)	%	0

[P] COCCOC(=O)CSc1cc(-n2c(=O)cc(C(F)(F)F)n(C)c2=O)c(F)cc1Cl
[Q] Cn1c(C(F)(F)F)cc(=O)n(-c2cc(SCC(C)(C)C(=O)OCC3CCCOC3)c(Cl)cc2F)c1=O (stereo not drawn)
QUERY: Look at P and Q . Which one has the lower recorded Zea mays (Efficacy in %) number? # respond with the chosen item's label
RESULT: Q
